Entries with their measured GI50, system HCT-15:

- COc1ccc(C(=O)O[C@@H]2CCN3CC[C@H](C)[C@H]23)cc1: > 100 µM
- O=C(O)CCC(=O)OCN1C(=O)C2C3C=CC(C2C1=O)C1C2C(=O)N(COC(=O)CCC(=O)O)C(=O)C2C31 (centres undefined): 32.4 µM
- COC1=C(C(=O)OC(C)(C)C)C23CCCCC2(C(C(=O)OC(C)(C)C)=C(OC)C3C(=O)OC(C)(C)C)C1C(=O)OC(C)(C)C (centres undefined): 15.2 µM
- Clc1ccccc1NN(Cc1ccccn1)c1ccccc1Cl: 24.9 µM
- O=S(=O)(O)c1cc(S(=O)(=O)O)c2c(/N=N/c3cccc4ccccc34)c(O)ccc2c1: > 100 µM

GI50 for HCT-15 with input O=c1c2cc(Br)ccc2nc(-c2ccccc2)n1NCC1(O)OCC(O)C(O)C1O (centres undefined) equals > 100 µM

GI50 for HCT-15 with input CN(C)CC1CC/C(=C\c2ccc3c(c2)OCO3)C1=O (centres undefined) equals 6.67 µM

GI50 for HCT-15 with input CC(=O)c1cccc(NC2C(N)C(NC(=O)N(C)C)(C(C)O)C(C)(O)C2(O)COC(=O)c2c(C)cccc2O)c1 (centres undefined) equals 0.00296 µM

GI50 for HCT-15 with input O=C1/C(=C/c2cccc([N+](=O)[O-])c2)Cc2ccccc21 equals 72.8 µM

GI50 for HCT-15 with input Nc1ncnc2c1ncn2C1OC(CO)C(O)C1NS(=O)(=O)c1ccccc1 (centres undefined) equals > 100 µM

GI50 for HCT-15 with input COc1ccc2[nH]c3c4c(cc(-c5ccccc5)c3c2c1)C(=O)N(c1ccccc1)C4=O equals 41.4 µM

GI50 for HCT-15 with input O=C(CCc1cc(-c2ccc(F)cc2)n[nH]1)N(Cc1ccccc1)Cc1ccccc1 equals > 100 µM

GI50 for HCT-15 with input O=[N+]([O-])c1ccc(-c2ccc([C@H]3CC(c4cc(F)c(Cl)cc4Cl)=NN3)o2)cc1 equals 1.52 µM

GI50 for HCT-15 with input O=C(/C=C/c1ccc([N+](=O)[O-])o1)N1CCN(Cc2ccccc2)CC1 equals 4.41 µM

GI50 for HCT-15 with input CN(NC(=O)/C(=C/C=C/c1ccccc1)NC(=O)c1ccccc1)C1=C(Cl)C(=O)[N+](c2ccccc2)=CC1 equals 24.2 µM

GI50 for HCT-15 with input Cc1ccc(/N=N/C(=N/c2ccccc2)c2ccc(N(CCC#N)CCC#N)cc2)cc1 equals 44.8 µM

GI50 for HCT-15 with input COc1cccc(NC(=O)CC(=O)N2N=C(n3ccc4ccccc43)CC2c2ccccc2)c1 (centres undefined) equals > 100 µM
